TEST NAME: Toxicity liver stage against HepG2, at 10uM
Assay type: cell-based
Set-up: test concentration 10 uM, cell line HepG2-A16-CD81EGFP
EXPERIMENTAL SETUP: human, HepG2-A16-CD81EGFP cells; read-out: INHIBITION
READOUT TYPE: cytotoxicity at 10 µM (%)
Could you give me the number in %? Just the number is fine.

Record excerpt, results attached:
[[record]]
compound = "O=C(O)C1CN(c2cncc(Cc3ccccc3)n2)C1"
output_unit = "%"
measured_number = 0.885

[[record]]
compound = "Cc1n[nH]c(C)c1CNC(=O)NC1CCCN(c2ccccc2F)C1 (stereo not drawn)"
output_unit = "%"
measured_number = -2.57

[[record]]
compound = "CCC1(C(=O)O)CCCN(C(=O)c2ccc(N3CCN(C)CC3)cc2)C1 (stereo not drawn)"
output_unit = "%"
measured_number = -2.35

[[record]]
compound = "CCOc1cccc(CNC(=O)c2cnn(CC)c2C(F)(F)F)c1"
output_unit = "%"
measured_number = 11.7

[[record]]
compound = "COCCN1CC2(CCCN(C(=O)CCCc3cccs3)C2)CCC1=O (stereo not drawn)"
output_unit = "%"
measured_number = -8.5


// cytotoxicity at 10 µM lookup, key: CCn1cnnc1C1CCN(C(=O)C(OC)c2ccccc2)CC1 (stereo not drawn)
5.25

// cytotoxicity at 10 µM lookup, key: COCCn1c(=O)n(Cc2ccc(Cl)s2)c2cc(C(=O)O)ccc21
-5.54

// cytotoxicity at 10 µM lookup, key: CC(C)(C(=O)NCCS(N)(=O)=O)c1cccc(Br)c1
-8.35

// cytotoxicity at 10 µM lookup, key: Cn1c(=O)c2cc(C(=O)NCCc3ccccc3)ccc2n(C)c1=O
-13.8

// cytotoxicity at 10 µM lookup, key: CC(C)Nc1ncnc2c1CCN(C(=O)NCc1cccnc1)CC2
-150

// cytotoxicity at 10 µM lookup, key: CNS(=O)(=O)CCCN1CCN(C(C)c2cccnc2)CC1 (stereo not drawn)
-10.7

// cytotoxicity at 10 µM lookup, key: CCNc1cc(N2CCN(C(=O)c3ccc(OC)cc3)CC2)nc(C)n1
-3.45

// cytotoxicity at 10 µM lookup, key: CC(C)c1nc2n(n1)CC(NCC(=O)N(C)Cc1cccs1)CC2 (stereo not drawn)
-10.2

// cytotoxicity at 10 µM lookup, key: CC(C)NC(=O)[C@@]12CCO[C@@H]1CCN(Cc1ccco1)C2
-3.31
